Assay System: Aminopeptidase B (Mus musculus, UniProt Q8VCT3)
Sequence (Q8VCT3 whole entry): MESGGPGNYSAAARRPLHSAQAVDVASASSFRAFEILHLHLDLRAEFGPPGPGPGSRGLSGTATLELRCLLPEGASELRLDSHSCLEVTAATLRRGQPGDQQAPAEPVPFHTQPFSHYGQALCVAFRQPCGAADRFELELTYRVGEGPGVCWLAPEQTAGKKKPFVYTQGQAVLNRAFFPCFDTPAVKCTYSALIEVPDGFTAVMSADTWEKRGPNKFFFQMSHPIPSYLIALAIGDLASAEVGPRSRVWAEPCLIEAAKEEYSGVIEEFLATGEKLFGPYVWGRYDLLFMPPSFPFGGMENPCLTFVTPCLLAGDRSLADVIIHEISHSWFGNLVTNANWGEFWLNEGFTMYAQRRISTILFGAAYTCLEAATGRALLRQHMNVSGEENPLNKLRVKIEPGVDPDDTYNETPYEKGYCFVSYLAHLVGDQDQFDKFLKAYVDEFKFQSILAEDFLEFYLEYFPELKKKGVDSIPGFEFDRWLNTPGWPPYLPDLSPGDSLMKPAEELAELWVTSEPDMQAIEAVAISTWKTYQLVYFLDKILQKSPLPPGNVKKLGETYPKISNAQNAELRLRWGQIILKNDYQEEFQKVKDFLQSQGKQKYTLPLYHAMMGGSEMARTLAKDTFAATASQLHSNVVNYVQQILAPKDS
Assay Summary: Inhibition of Aminopeptidase B in murine L-cells by Aoyagi method.
Binary label based on IC50 with cut-off 200 µM: below gives class 1, not below gives class 0.

Consider the worked cases shown below.
{"Molecule": "COC(=O)[C@@H](NC(C#N)[C@@H](N)Cc1ccccc1)C(C)C (stereo partly drawn)", "Classification": "class 1"}
{"Molecule": "COC(=O)[C@H](CC(C)C)NC(C#N)[C@@H](N)Cc1ccccc1 (stereo partly drawn)", "Classification": "class 1"}
{"Molecule": "COC(=O)[C@H](Cc1ccccc1)N[C@@H](C#N)[C@@H](N)Cc1ccccc1", "Classification": "class 0"}
{"Molecule": "COC(=O)[C@H](CC(C)C)NC(C(N)=O)[C@@H](N)Cc1ccccc1 (single isomer, unassigned)", "Classification": "class 0"}
{"Molecule": "COC(=O)[C@H](CCCCN)NC(C#N)[C@@H](N)Cc1ccccc1 (stereo partly drawn)", "Classification": "class 1"}
{"Molecule": "COC(=O)C1CCCN1C(=O)[C@H](CC(C)C)NC(C#N)[C@@H](N)Cc1ccccc1 (single isomer, unassigned)", "Classification": "class 1"}
{"Molecule": "COC(=O)[C@H](Cc1ccccc1)NC(C#N)[C@H](Cc1ccccc1)NC(=O)OC(C)(C)C (single isomer, unassigned; form 1)", "Classification": "class 0"}

Please find the next molecule below.
Ask: Strictly below 200 µM: is that where IC50 of COC(=O)[C@H](CC(C)C)NC(C#N)[C@H](Cc1ccccc1)NC(=O)OC(C)(C)C (mixture of isomers) sits?
Reply: class 0

----------
Assay System: UniProtKB Q8VCT3
Assay Summary: Inhibition of Aminopeptidase B in murine L-cells by Aoyagi method.
Residues, ends and D or L forms follow the SMILES beside them.
Measure: pIC50
# pIC50 is unitless: minus log10 of the molar concentration; print number only

The examples below pair each entry with its known result.
{"Molecule": "COC(=O)[C@@H]1CCCN1C(=O)[C@H](CC(C)C)NC(=O)[C@@H](N)Cc1ccccc1 (H-Phe-Leu-Pro-OMe)", "pIC50": 3.08}
{"Molecule": "COC(=O)[C@@H]1CCCN1C(=O)[C@H](CC(C)C)N[C@@H](C#N)[C@@H](N)Cc1ccccc1", "pIC50": 4.55}
{"Molecule": "COC(=O)C1CCCN1C(=O)[C@H](CC(C)C)NC(C#N)[C@H](Cc1ccccc1)NC(=O)OC(C)(C)C (single isomer, unassigned; form 1)", "pIC50": 3.00}
{"Molecule": "COC(=O)C1CCCN1C(=O)[C@H](CC(C)C)NC(C(N)=O)[C@@H](N)Cc1ccccc1 (single isomer, unassigned)", "pIC50": 3.00}
{"Molecule": "COC(=O)[C@H](CCCCN)NC(C#N)[C@H](Cc1ccccc1)NC(=O)OC(C)(C)C (mixture of isomers)", "pIC50": 3.00}

Ask: What pIC50 value was documented for this molecule, CC(C)C[C@H](NC(=O)[C@@H](O)[C@H](N)Cc1ccccc1)C(=O)O ?
Reply: 5.22

Ask: Try this molecule next: COC(=O)[C@H](Cc1ccccc1)N[C@H](C#N)[C@@H](N)Cc1ccccc1
Reply: 3.53

----------
Assay System: Aminopeptidase N (Homo sapiens)
Sequence (P15144 whole entry): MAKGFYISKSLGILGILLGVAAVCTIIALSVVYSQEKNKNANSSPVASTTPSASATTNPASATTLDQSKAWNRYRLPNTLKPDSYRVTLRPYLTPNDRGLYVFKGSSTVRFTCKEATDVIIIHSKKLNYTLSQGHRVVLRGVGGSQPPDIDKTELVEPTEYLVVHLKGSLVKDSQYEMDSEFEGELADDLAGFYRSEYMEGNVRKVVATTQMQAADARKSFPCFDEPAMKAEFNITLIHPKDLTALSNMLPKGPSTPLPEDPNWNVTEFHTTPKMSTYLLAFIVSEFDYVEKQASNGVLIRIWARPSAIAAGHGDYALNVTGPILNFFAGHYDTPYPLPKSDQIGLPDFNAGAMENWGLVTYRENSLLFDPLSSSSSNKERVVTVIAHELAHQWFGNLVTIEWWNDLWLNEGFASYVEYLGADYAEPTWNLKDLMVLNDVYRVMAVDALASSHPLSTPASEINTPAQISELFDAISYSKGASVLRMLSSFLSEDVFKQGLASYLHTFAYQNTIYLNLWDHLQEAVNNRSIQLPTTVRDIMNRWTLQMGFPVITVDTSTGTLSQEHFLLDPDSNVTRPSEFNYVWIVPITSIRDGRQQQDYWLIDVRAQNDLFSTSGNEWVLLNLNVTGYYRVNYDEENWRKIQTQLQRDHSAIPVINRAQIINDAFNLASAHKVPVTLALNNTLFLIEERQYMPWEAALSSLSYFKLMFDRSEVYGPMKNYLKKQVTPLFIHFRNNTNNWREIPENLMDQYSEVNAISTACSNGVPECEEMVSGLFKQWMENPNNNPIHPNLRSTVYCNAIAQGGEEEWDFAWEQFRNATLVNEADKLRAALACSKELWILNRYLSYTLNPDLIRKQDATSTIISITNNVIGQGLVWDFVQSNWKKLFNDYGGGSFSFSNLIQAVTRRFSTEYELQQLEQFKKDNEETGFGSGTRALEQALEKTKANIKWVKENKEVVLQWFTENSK
Assay Summary: Concentration required for inhibitory potency on Aminopeptidase M using L-leucine-2-naphthylamide hydrochloride as substrate(0.5 mM, Km=0.6*10e-4 M)
Measure: IC50 (µM)
Give the quantity in µM, number only.

Ask: What IC50 value was documented for this compound, COC(=O)C1CCCN1C(=O)[C@H](CC(C)C)NC(C(N)=O)[C@@H](N)Cc1ccccc1 (single isomer, unassigned) ?
Reply: 783
